Reference source: paper PMC8532147

- assay.protocol: in vitro
- Type: in vitro ADME
- condition.description: s9 or cytosol
Bridge positions count the residues as written; N and C are the ends. Square brackets hold non-standard residues; d marks the D form. Peptide text beside a SMILES is read from it. I, II: the chains in the order shown. Phe(4-B(OH)2) = N[C@@H](Cc1ccc(B(O)O)cc1)C(=O)O; Dopa = N[C@@H](Cc1ccc(O)c(O)c1)C(=O)O
endpoint.label: remaining at 10 min, 1 mM (%)

>>> number("NC(=O)[C@H](Cc1ccc(B(O)O)cc1)NC(=O)[C@H](CO)NC(=O)[C@H](CSSC[C@H](NC(=O)[C@H](CO)NC(=O)[C@@H](N)Cc1ccc(O)c(O)c1)C(=O)N[C@@H](CO)C(=O)N[C@@H](Cc1ccc(O)c(O)c1)C(N)=O)NC(=O)[C@H](CO)NC(=O)[C@@H](N)Cc1ccc(B(O)O)cc1 [2Ox] (I: H-[Phe(4-B(OH)2)]SCS[Phe(4-B(OH)2)]-NH2 / II: H-[Dopa]SCS[Dopa]-NH2; disulfide I:3-II:3)")
80

----------
- assay.protocol: in vitro
- Type: in vitro ADME
- condition.description: calf (bovine), cells or culture medium
Bridge positions count the residues as written; N and C are the ends. Square brackets hold non-standard residues; d marks the D form. Peptide text beside a SMILES is read from it. I, II: the chains in the order shown. Phe(4-B(OH)2) = N[C@@H](Cc1ccc(B(O)O)cc1)C(=O)O; Dopa = N[C@@H](Cc1ccc(O)c(O)c1)C(=O)O
endpoint.label: metabolised at 24 h

>>> result("NC(=O)[C@H](Cc1ccc(B(O)O)cc1)NC(=O)[C@H](CO)NC(=O)[C@H](CSSC[C@H](NC(=O)[C@H](CO)NC(=O)[C@@H](N)Cc1ccc(O)c(O)c1)C(=O)N[C@@H](CO)C(=O)N[C@@H](Cc1ccc(O)c(O)c1)C(N)=O)NC(=O)[C@H](CO)NC(=O)[C@@H](N)Cc1ccc(B(O)O)cc1 [2Ox] (I: H-[Phe(4-B(OH)2)]SCS[Phe(4-B(OH)2)]-NH2 / II: H-[Dopa]SCS[Dopa]-NH2; disulfide I:3-II:3)")
"~20%"
